As shown below, each of these compounds has a reported IC50 value.
# TARGET DESC: 92 kDa gelatinase (MMP9) (Homo sapiens, UniProt P14780)
# Sequence (P14780 107-707 limits assumed): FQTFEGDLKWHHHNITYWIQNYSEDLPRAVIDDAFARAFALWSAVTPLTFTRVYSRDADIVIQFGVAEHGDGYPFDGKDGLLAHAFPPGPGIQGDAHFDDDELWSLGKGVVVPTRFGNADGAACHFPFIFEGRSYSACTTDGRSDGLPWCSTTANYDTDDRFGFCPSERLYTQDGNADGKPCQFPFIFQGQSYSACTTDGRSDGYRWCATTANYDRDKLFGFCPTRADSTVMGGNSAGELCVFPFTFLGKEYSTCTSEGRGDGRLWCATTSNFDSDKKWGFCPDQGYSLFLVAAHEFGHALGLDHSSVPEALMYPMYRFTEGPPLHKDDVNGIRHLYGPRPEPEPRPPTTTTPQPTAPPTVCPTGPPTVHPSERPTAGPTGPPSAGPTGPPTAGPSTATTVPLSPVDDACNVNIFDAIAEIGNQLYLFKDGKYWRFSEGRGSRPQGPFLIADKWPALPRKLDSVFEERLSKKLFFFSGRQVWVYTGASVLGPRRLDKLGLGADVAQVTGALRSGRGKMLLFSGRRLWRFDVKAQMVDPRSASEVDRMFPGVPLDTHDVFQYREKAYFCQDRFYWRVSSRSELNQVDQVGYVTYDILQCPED
# MEASUREMENT NOTES: MMP9 enzyme inhibition assay (fluorogenic peptide substrate McaPLGLDpaAR)
# CONDITION: recombinant human 92 kDa gelatinase, 37° C., 2 hours

MOLECULAR STRING	IC50
Cc1ccc(-c2nc([C@@H](NC(=O)[C@H](CC(C)C)[C@H](O)C(=O)NO)C(C)(C)C)no2)cc1	100 to 1000 nM
CC(C)C[C@@H](C(=O)N[C@H](c1noc(-c2cccs2)n1)C(C)(C)C)[C@H](O)C(=O)NO	100 to 1000 nM
CC(C)C[C@@H](C(=O)N[C@H](c1noc(C(C)C)n1)C(C)(C)C)[C@H](O)C(=O)NO	100 to 1000 nM
CCCCCCCCCCCCCC[C@H](CC(=O)O)C(=O)N[C@H](c1nc(-c2ccccc2)no1)C(C)(C)C	> 10000 nM

* * *

# TARGET DESC: collagenase (MMP1) (Homo sapiens, UniProt P03956)
# Sequence (P03956 100-469): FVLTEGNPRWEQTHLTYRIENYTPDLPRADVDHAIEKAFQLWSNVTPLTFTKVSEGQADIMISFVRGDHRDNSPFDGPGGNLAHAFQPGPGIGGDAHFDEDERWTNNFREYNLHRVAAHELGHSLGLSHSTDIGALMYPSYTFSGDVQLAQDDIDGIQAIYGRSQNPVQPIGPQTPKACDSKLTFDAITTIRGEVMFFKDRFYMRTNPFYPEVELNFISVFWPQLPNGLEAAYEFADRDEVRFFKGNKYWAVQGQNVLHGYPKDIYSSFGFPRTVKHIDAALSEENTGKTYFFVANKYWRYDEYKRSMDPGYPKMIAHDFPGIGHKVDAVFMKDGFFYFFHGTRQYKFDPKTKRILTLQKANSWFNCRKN

MOLECULAR STRING	IC50
CC(C)C[C@@H](C(=O)N[C@H](c1noc(Cc2ccccc2)n1)C(C)(C)C)[C@H](O)C(=O)NO	1000 to 10000 nM
CC(C)C[C@@H](C(=O)N[C@H](c1noc(-c2ccco2)n1)C(C)(C)C)[C@H](O)C(=O)NO	100 to 1000 nM
Cc1nc([C@@H](NC(=O)[C@H](CC(C)C)[C@H](O)C(=O)NO)C(C)(C)C)no1	100 to 1000 nM
CC(C)C[C@@H](C(=O)N[C@H](c1noc(CC(C)(C)C)n1)C(C)(C)C)[C@H](O)C(=O)NO	1000 to 10000 nM
C=CC[C@H](C(=O)NO)[C@@H](CC(C)C)C(=O)N[C@@H](Cc1ccccc1)c1nc(C(C)C)no1	100 to 1000 nM

* * *

The reader will find pIC50 measurements below, all made with collagenase (MMP1) (Homo sapiens, UniProt P03956).
pIC50: −log10 of the molar value.

MOLECULAR STRING	pIC50
CC(C)c1noc([C@@H](NC(=O)[C@H](CC2CCCC2)[C@H](O)C(=O)NO)C(C)(C)C)n1	> 7.00
CC(C)C[C@@H](C(=O)N[C@H](c1noc(-c2ccccc2)n1)C(C)(C)C)[C@H](O)C(=O)NO	6.00 to 7.00
CC(C)C[C@@H](C(=O)N[C@H](c1noc(C(C)C)n1)C(C)(C)C)[C@H](O)C(=O)NO	6.00 to 7.00
CC(C)(C)[C@H](NC(=O)[C@H](CCCc1cc(C(F)(F)F)cc(C(F)(F)F)c1)[C@H](O)C(=O)NO)c1noc(-c2cccs2)n1	< 5.00
